target: human PD-1 (NM_005018.2) over-expressed on cells (human, UniProt Q15116 25-288); experiment: cell-based or functional assay
Sequence (Q15116 25-288): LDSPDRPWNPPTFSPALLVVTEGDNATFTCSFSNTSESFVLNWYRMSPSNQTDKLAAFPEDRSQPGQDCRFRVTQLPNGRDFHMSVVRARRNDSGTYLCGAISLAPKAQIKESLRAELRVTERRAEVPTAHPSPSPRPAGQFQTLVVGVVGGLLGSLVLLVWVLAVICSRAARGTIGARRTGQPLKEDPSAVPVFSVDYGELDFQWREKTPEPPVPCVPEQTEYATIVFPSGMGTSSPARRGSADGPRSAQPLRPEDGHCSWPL
Give EC50 [nM], PD1/PD-L1 blockade bioassay for every item shown.
Numbers only, in nM.

Provide EC50 [nM], PD1/PD-L1 blockade bioassay values for the following items, in order.
1. PD1-45D6 (antibody, V domains shown, scFv-phage in the screening ELISA; whole IgG in the other assays) VH: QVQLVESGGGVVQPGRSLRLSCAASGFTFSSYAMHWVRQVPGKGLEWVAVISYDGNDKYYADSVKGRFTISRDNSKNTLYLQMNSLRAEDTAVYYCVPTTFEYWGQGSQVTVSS VL: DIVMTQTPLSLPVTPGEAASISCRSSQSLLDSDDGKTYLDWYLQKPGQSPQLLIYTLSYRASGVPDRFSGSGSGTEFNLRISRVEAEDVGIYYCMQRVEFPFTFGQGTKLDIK
2. PD1-49A2(A/2B10) (antibody, V domains shown) VH: QVQLVESGGGVVQPGRSLRLSCAASGFTFLVYAMHWVRQAPGKGLEWVAVISYDGSHKYYADSVKGRFTISRDNSKNTLYLQMNSLRAEDTAVYYCTTTTFDSWGQGTLVTVSS VL: DIVMTQTPLSLPVTPGEPASISCRSSQSLLDSDDGNTYLDWYLQKPGQSPQLLIYTLSHRASGVPDRFSGSGSGTDFTLKISRVAAEDVGLYYCMQRVEFPFTFGQGTKLDIK
3. PD1-45D6(A/5B12) (antibody, V domains shown) VH: QVQLVESGGGVVQPGRSLRLSCAASGFTFSVYAMHWVRQAPGKGLEWVAVISYDGNDKYYADSVKGRFTISRDNSKNTLYLQMNSLRAEDTAVYYCVPTTFEYWGQGTLVTVSS VL: DIVMTQTPLSLPVTPGEAASISCRSSQSLLDSEDGNTYLDWYLQKPGQSPQLLIYTLSHRASGVPDRFSGSGSGTDFTLKISRVEAEDVGIYYCMQRVEFPFTFGQGTKVEIK

1: 2; 2: 0.65; 3: 0.8

Provide EC50 [nM], PD1/PD-L1 blockade bioassay values for the following items, in order.
1. PD1-52E8 (antibody, V domains shown, scFv-phage in the screening ELISA; whole IgG in the other assays) VH: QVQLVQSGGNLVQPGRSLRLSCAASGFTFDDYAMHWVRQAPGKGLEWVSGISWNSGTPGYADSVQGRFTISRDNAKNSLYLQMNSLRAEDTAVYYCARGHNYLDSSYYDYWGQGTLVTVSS VL: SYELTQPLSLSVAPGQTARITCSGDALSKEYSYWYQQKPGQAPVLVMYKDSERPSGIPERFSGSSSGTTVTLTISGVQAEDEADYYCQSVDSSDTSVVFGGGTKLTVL
2. PD1-45D6(A/5A6) (antibody, V domains shown) VH: QVQLVESGGGVVQPGRSLRLSCAASGFTFRLYAMHWVRQAPGKGLEWVAVISHDGNDKYYADSVKGRFTISRDNSKNTLYLQMNSLRAEDTAVYYCVPTTFEYWGQGTLVTVSS VL: DIVMTQTPLSLPVTPGEPASISCRSSQSLLDSEDGNTYLDWYLQKPGQSPQLLIYTLSHRASGVPDRFSGSGSGTDFTLKISRVEAEDVGVYYCMQRIDFPYTFGQGTKLDIK

1: 8.43; 2: 0.92
